- MEASURED ON: EGFR (form used in the assay not stated) (human, UniProt P00533 25-645, limits assumed)
- PROTOCOL NOTES: ELISA, NEM conjugate, 500 nM
# binding relative to P54AR4-83v2 parent per record follows
Numbers only here, please. The scale is ratio.

Record excerpt, results attached:
BINDER	VALUE KIND	UNIT SYMBOL	READOUT VALUE
P54AR4-83v2 L32C, NEM conjugate (designed binder, not shown: small tags and cut ends, N-ethyl maleimide (NEM) on Cys 32) LPAPKNLVVSEVTEDSARLSWDDPWAFYESFCIQYQESEKVGEAIVLTVPGSERSYDLTGLKPGTEYTVSIYGVHNVYKDTNMRGLPLSAIFTT	binding relative to P54AR4-83v2 parent	ratio	0.91
P54AR4-83v2 S30C, NEM conjugate (designed binder, not shown: small tags and cut ends, N-ethyl maleimide (NEM) on Cys 30, also called 530C) LPAPKNLVVSEVTEDSARLSWDDPWAFYECFLIQYQESEKVGEAIVLTVPGSERSYDLTGLKPGTEYTVSIYGVHNVYKDTNMRGLPLSAIFTT	binding relative to P54AR4-83v2 parent	ratio	0.9
P54AR4-83v2 K40C, NEM conjugate (designed binder, not shown: small tags and cut ends, N-ethyl maleimide (NEM) on Cys 40) LPAPKNLVVSEVTEDSARLSWDDPWAFYESFLIQYQESECVGEAIVLTVPGSERSYDLTGLKPGTEYTVSIYGVHNVYKDTNMRGLPLSAIFTT	binding relative to P54AR4-83v2 parent	ratio	0.86
P54AR4-83v2 Y78C, NEM conjugate (designed binder, not shown: small tags and cut ends, N-ethyl maleimide (NEM) on Cys 78) LPAPKNLVVSEVTEDSARLSWDDPWAFYESFLIQYQESEKVGEAIVLTVPGSERSYDLTGLKPGTEYTVSIYGVHNVCKDTNMRGLPLSAIFTT	binding relative to P54AR4-83v2 parent	ratio	0.68
P54AR4-83v2 M83C, NEM conjugate (designed binder, not shown: small tags and cut ends, N-ethyl maleimide (NEM) on Cys 83) LPAPKNLVVSEVTEDSARLSWDDPWAFYESFLIQYQESEKVGEAIVLTVPGSERSYDLTGLKPGTEYTVSIYGVHNVYKDTNCRGLPLSAIFTT	binding relative to P54AR4-83v2 parent	ratio	0.24
P54AR4-83v2 K62C, NEM conjugate (designed binder, not shown: small tags and cut ends, N-ethyl maleimide (NEM) on Cys 62) LPAPKNLVVSEVTEDSARLSWDDPWAFYESFLIQYQESEKVGEAIVLTVPGSERSYDLTGLCPGTEYTVSIYGVHNVYKDTNMRGLPLSAIFTT	binding relative to P54AR4-83v2 parent	ratio	0.61

Next binder, please.
Prompt: Give the measured binding relative to P54AR4-83v2 parent of P54AR4-83v2 L88C, NEM conjugate (designed binder, not shown: small tags and cut ends, N-ethyl maleimide (NEM) on Cys 88) LPAPKNLVVSEVTEDSARLSWDDPWAFYESFLIQYQESEKVGEAIVLTVPGSERSYDLTGLKPGTEYTVSIYGVHNVYKDTNMRGLPCSAIFTT .
Completion: 0.97
